Sourced from ChEMBL document CHEMBL1201862

tested on: UACC-62; experiment: NCI tumour cell line growth inhibition, 48 h
Active and inactive are the calls of the source. Cut-off read from the data, not from the text of the source: active = GI50 up to about 1.1 µM and inactive = higher.
Classes used: Yes = active, No = inactive

# molecule, class
measured = [
    ("CCOP(=O)(CCCC(O)CNc1nc(N)nc(Cl)c1/N=N/c1ccc(Cl)cc1)OCC (stereo not drawn)", "No"),
    ("CCCCCCC/C=C1\\CCC(CN(C)C)C1=O (stereo not drawn)", "No"),
    ("C1COCCN1.S=C(S)N1CCOCC1", "No"),
    ("O=C(O)Cc1ccc2nc(COC(=O)c3ccccc3)sc2c1", "No"),
    ("CN(OC(=O)CC(=O)c1ccccc1)C(=O)Cc1ccccc1", "No"),
    ("O=C(NCCNCCNC(=O)c1cc(-c2ccccc2)nc2ccccc12)c1cc(-c2ccccc2)nc2ccccc12", "No"),
    ("CCOC(=O)N1CCc2cc(OC)c(OC)c3c2C1CC3=O (stereo not drawn)", "No"),
    ("COc1ccc(NC2Oc3cc4c(cc3C(c3cccc(OC)c3OC)C2C)OCO4)cc1 (stereo not drawn)", "No"),
    ("CN(C)CCOc1ccc2[nH]c(C(=O)N3CC(CCl)c4c3cc(N)c3ccccc43)cc2c1 (stereo not drawn)", "Yes"),
    ("CC1(C)CC23C4COC(=O)C2CCC1C3CC4=O (stereo not drawn)", "No"),
    ("COC(=O)/C(C#N)=C1\\CCC(O)N1C (stereo not drawn)", "No"),
    ("Cc1c2ccccc2cc2nc3ccccc3n12", "No"),
    ("CCNC(=O)Cc1nc2c(O)ncnc2n1C1OC(CO)C(O)C1O (stereo not drawn)", "No"),
    ("CCCCCCCCCCCCCCCCCC[N+](C)(C)Cc1ccc(C[N+](C)(C)CCCCCCCCCCCCCCCCCC)cc1", "No"),
    ("Cc1cccc2c(N)c3cccc(C(=O)NCC[N+](C)(C)Cc4ccccc4[N+](=O)[O-])c3nc12", "No"),
    ("Cc1nc(Nc2ccc(Cl)cc2)sc1C(=O)NNC(=S)NN", "No"),
    ("COc1ccc2c(c1)CCC(CN1CCN(CCOC(c3ccc(F)cc3)c3ccc(F)cc3)CC1)=C2", "No"),
    ("O=C(Cn1cc(Br)c(=O)[nH]c1=O)c1ccc(-c2ccccc2)cc1", "No"),
    ("CCCCSCC(NC(=O)/C=C/c1c(C)[nH]c(=O)[nH]c1=O)C(=O)OC (stereo not drawn)", "No"),
    ("CCN(CCN(CC)C(=O)NC)C(=O)NC", "No"),
    ("O=C1N2CCc3c([nH]c4ccccc34)C23CC2CCCCC12S3 (stereo not drawn)", "No"),
    ("Cc1ccc2c(c1)C1(OC(=O)c3ccccc31)c1ccc(F)cc1O2 (stereo not drawn)", "No"),
    ("O=C1N=C(Nc2ccccc2Cl)N/C1=C\\c1ccc(Cl)cc1Cl", "No"),
]

----------
test system: DMS-114; assay: NCI tumour cell line growth inhibition, 48 h
The source made the active and inactive calls. Rule as the data show it: active = GI50 up to about 1.1 µM and inactive = higher.

# compound, experimentalSystem, GI50
rows = [
    ("C=CCNC1=NC(=O)C(CC(=O)Nc2cccc(Cl)c2)S1 (stereo not drawn)", "DMS-114", "> 100 µM (inactive)"),
    ("COc1ccccc1C1C(C(=O)O)=C(CO)Oc2cc3c(cc21)OCO3 (stereo not drawn)", "DMS-114", "> 100 µM (inactive)"),
    ("O=C1NC2(C=Cc3c(ccc4ccccc34)O2)Oc2ccccc21 (stereo not drawn)", "DMS-114", "13.2 µM (inactive)"),
]
